- Assay Name: Quantitative High-Throughput drug screen in 47 multiple myeloma cell lines against the NCATS MIPE library collection: OPM1_PLB cell viability assay (AID 1918989); note: nearly all actives have a fitted effect of over 40% in size
- Condition Info: CellTiter-Glo, 48 h; series mostly up to 45.8 µM
Records with an inconclusive call do not appear. The source made the active and inactive calls. Calls come from the whole dose curve; as a rule, active = well fitted cell-killing curve with a large enough effect; inconclusive = small, poorly fitted or top-dose-only effect, or effect the other way; inactive = no such curve, though single readings can be large or run the other way.
Select the matching outcome among active, inactive

Compound	Qualitative Label
COc1ccc2c(Oc3ccc(NC(=O)c4c(C)n(CC(C)(C)O)n(-c5ccccc5)c4=O)nc3)ccnc2c1	inactive
Cc1cnc(C(=O)O)c[n+]1[O-]	inactive
CO[C@H]1C[C@@H]2CC[C@@H](C)[C@@](O)(O2)C(=O)C(=O)N2CCCC[C@@H]2C(=O)O[C@H]([C@H](C)C[C@@H]2CC[C@H](OCCO)[C@H](OC)C2)CC(=O)[C@H](C)C=C(C)[C@@H](O)[C@@H](OC)C(=O)[C@H](C)C[C@H](C)C=CC=CC=C1C	active
O=c1c(-c2ccc(O)cc2)coc2cc(OC3O[C@H](CO)[C@H](O)[C@H](O)[C@H]3O)cc(O)c12 (stereo partly drawn)	active
COc1ccc(-c2oc3c(CC=C(C)C)c(OC4O[C@H](CO)[C@@H](O)[C@H](O)[C@@H]4O)cc(O)c3c(=O)c2OC2O[C@@H](C)[C@H](O)[C@@H](O)[C@@H]2O)cc1 (stereo partly drawn)	active

Dear all, I need the recorded test outcome for COc1ccc(-c2coc3cc(O)ccc3c2=O)cc1 , thank you. inactive

Dear all, I need the recorded test outcome for NS(=O)(=O)c1ccc(NC2=CC(=O)c3ccccc3C2=O)cc1 , thank you. active

Dear all, I need the recorded test outcome for COc1cccc(-c2cc(=O)c3ccccc3o2)c1N , thank you. active
